Consider the following sequences; for each one, report its pIC50.
- assay system: HLA-B*44:03
- assay: IEDB peptide-MHC binding, purified MHC/competitive/radioactivity; bounds were set here for any values at or beyond the usual limits of such assays
- measurement context: source organism: Hepatitis delta virus
Answers are plain numbers, as −log10 of the molar value.

>>> df
   ordered_residues  measured_property  reported_result
0         EENLWLGNI              pIC50             6.66

Please look at the following sequence next.
Qu. Need pIC50, item `DDNPWLGNI`
Ans. 5.04

* * *

- assay system: HLA-B*18:01
- assay: IEDB peptide-MHC binding, purified MHC/competitive/radioactivity; bounds were set here for any values at or beyond the usual limits of such assays
- measurement context: source organism: Hepatitis delta virus
measured property: IC50

   ordered_residues  reported_result
0         DDNPWLGNI       ≥ 50000 nM

Please look at the following sequence next.
Qu. Need IC50, item `EENLWLGNI`
Ans. 1990 nM

* * *

- assay system: HLA-B*58:01
- assay: IEDB peptide-MHC binding, purified MHC/competitive/radioactivity; bounds were set here for any values at or beyond the usual limits of such assays
- measurement context: source organism: Hepatitis delta virus
Consider the following sequences; for each one, report its IC50.
Numbers only, in µM.

Some solved entries appear below for comparison.
In [3]: df
Out[3]:
   ordered_residues  units  reported_result
0          TGRQGFPW     µM             1.55
1          RGDREFPW     µM            0.195

Please look at the following sequence next.
Qu. Need IC50, item `RGSQGFPW`
Ans. 0.014

* * *

- assay system: HLA-B*07:02
- assay: IEDB peptide-MHC binding, purified MHC/competitive/radioactivity; bounds were set here for any values at or beyond the usual limits of such assays
- measurement context: source organism: Hepatitis delta virus
pIC50: −log10 of the molar value.
Kind request: treat 6 as inclusive, so pIC50 at 6 or higher is rule met, anything lower is rule not met.

Solved cases below.
>>> print(df.to_string())
   ordered_residues         label
0         FPWDMLFPA      rule met
1        SQGFPWDILF  rule not met
2         QGFPWDLLF  rule not met
3         FPWDILFPS  rule not met

Qu. Does `FPWDILFPA` have a reported pIC50 of at least 6?
Ans. rule met

Qu. Does `DRGFPWDILF` have a reported pIC50 of at least 6?
Ans. rule not met

Qu. Does `FPWDLLFPA` have a reported pIC50 of at least 6?
Ans. rule met

Qu. Does `QGFPWDILF` have a reported pIC50 of at least 6?
Ans. rule not met

Qu. Does `NQGIPWDILF` have a reported pIC50 of at least 6?
Ans. rule not met

* * *

- assay system: HLA-B*27:05
- assay: IEDB peptide-MHC binding, purified MHC/competitive/radioactivity; bounds were set here for any values at or beyond the usual limits of such assays
- measurement context: source organism: Hepatitis delta virus
Consider the following sequences; for each one, report its IC50.
Numbers only, in µM.

   ordered_residues  reported_result
0         RRKALENKR            0.109

Please look at the following sequence next.
Qu. Need IC50, item `RRKALENKS`
Ans. 13.6

* * *

- assay system: HLA-B*44:02
- assay: IEDB peptide-MHC binding, purified MHC/competitive/radioactivity; bounds were set here for any values at or beyond the usual limits of such assays
- measurement context: source organism: Hepatitis delta virus
Consider the following sequences; for each one, report its IC50.
Give bare numbers, in µM.

>>> df
   ordered_residues  assay_system  units  reported_result
0         DDNPWLGNI   HLA-B*44:02     µM             35.1

Please look at the following sequence next.
Qu. Need IC50, item `EENLWLGNI`
Ans. 0.468

* * *

Consider the following sequences; for each one, report its IC50.
- assay system: HLA-B*52:01
- assay: IEDB peptide-MHC binding, purified MHC/competitive/radioactivity; bounds were set here for any values at or beyond the usual limits of such assays
- measurement context: source organism: Hepatitis delta virus
Numbers only, in µM.

Some solved entries appear below for comparison.
>>> print(df.to_string())
   ordered_residues  measured_property  reported_result
0        DRGFPWDILF               IC50             4.68
1         QGFPWDLLF               IC50            0.135
2        NQGIPWDILF               IC50             1.47
3        SQGFPWDILF               IC50             3.66

Please look at the following sequence next.
Qu. Need IC50, item `QGFPWDILF`
Ans. 0.018

* * *

- assay system: HLA-B*35:01
- assay: IEDB peptide-MHC binding, purified MHC/competitive/radioactivity; bounds were set here for any values at or beyond the usual limits of such assays
- measurement context: source organism: Hepatitis delta virus
# if measured IC50 < 6 nM: yes (1)  # else: no (0)

Solved cases below.
>>> print(df.to_string())
   ordered_residues  assay_system    label
0        SQGFPWDILF   HLA-B*35:01   no (0)
1        NQGIPWDILF   HLA-B*35:01   no (0)
2         FPWDLLFPA   HLA-B*35:01   no (0)
3         FPWDMLFPA   HLA-B*35:01  yes (1)
4         FPWDILFPA   HLA-B*35:01  yes (1)

For the next question, use this sequence.
Qu. Please state whether IC50 is below 6 nM for `QGFPWDLLF`
Ans. no (0)

* * *

- assay system: HLA-A*02:05
- assay: IEDB peptide-MHC binding, purified MHC/competitive/radioactivity; bounds were set here for any values at or beyond the usual limits of such assays
- measurement context: source organism: Hepatitis delta virus
# if measured IC50 < 9 µM: t  # else: f

Solved cases below.
>>> print(df.to_string())
   ordered_residues  assay_system  label
0        DRGFPWDILF   HLA-A*02:05      f
1        NQGIPWDILF   HLA-A*02:05      t
2         QGFPWDILF   HLA-A*02:05      f

Qu. Please state whether IC50 is below 9 µM for `FPWDILFPA`
Ans. f

* * *

- assay system: HLA-B*35:01
- assay: IEDB peptide-MHC binding, purified MHC/competitive/radioactivity; bounds were set here for any values at or beyond the usual limits of such assays
- measurement context: source organism: Hepatitis delta virus
measured property: pIC50
Answers are plain numbers, as −log10 of the molar value.

In [3]: df
Out[3]:
   ordered_residues  assay_system  measured_property  reported_result
0         FPWDILFPS   HLA-B*35:01              pIC50             7.57

Please look at the following sequence next.
Qu. Need pIC50, item `QGFPWDILF`
Ans. 6.93

* * *

- assay system: HLA-A*02:05
- assay: IEDB peptide-MHC binding, purified MHC/competitive/radioactivity; bounds were set here for any values at or beyond the usual limits of such assays
- measurement context: source organism: Hepatitis delta virus
Consider the following sequences; for each one, report its pIC50.
Answers are plain numbers, as −log10 of the molar value.

Some solved entries appear below for comparison.
In [3]: df
Out[3]:
   ordered_residues  measured_property  reported_result
0         FPWDMLFPA              pIC50             5.24
1        SQGFPWDILF              pIC50             5.51
2         FPWDILFPS              pIC50             4.93

Below is a list of sequences. For each, state its recorded pIC50.
1. FPWDLLFPA
2. QGFPWDLLF

Ans.
1: 5.38; 2: 5.47

Values were extracted from the Immune Epitope Database (IEDB).
